assayMethodText: Cytotoxicity assay (CellTiter-Glo, 72 h), MESO-1
Assay type: cell-based
experimentalSetup: human, MESO-1 malignant pleural mesothelioma cells, conc 50 uM; raw replicate data; read-out: MESO1 viability (%)
In this section, each of the compounds is paired with its reported viability at 72 h, 50 uM.
testReadout: viability at 72 h, 50 uM (%)

compound="COC1CC2CCC(C)C(O)(O2)C(=O)C(=O)N2CCCCC2C(=O)OC(C(C)CC2CCC(O)C(OC)C2)CCC(C)C=C(C)C(O)C(OC)C(=O)C(C)CC(C)C=CC=CC=C1C (stereo not shown)" endpointresult=31.7
compound=CO[C@@H]1/C=C/C=C/[C@@H](C)C[C@@H](C)C(=O)C[C@H](O)/C(C)=C/[C@@H](C)C(=O)C[C@@H]([C@H](C)C[C@@H]2CC[C@@H](O)[C@H](OC)C2)OC(=O)[C@@H]2CCCCN2C(=O)C(=O)[C@]2(O)O[C@@H](CC[C@H]2C)C1 endpointresult=53
compound="CO[C@H]1C[C@@H]2CC[C@@H](C)[C@@](O)(O2)C(=O)C(=O)N2CCCC[C@H]2C(=O)O[C@H]([C@H](C)C[C@@H]2CC[C@@H](O)[C@H](OC)C2)CC(=O)[C@H](C)/C=C(\\C)[C@@H](O)[C@@H](OC)C(=O)[C@H](C)C[C@H](C)/C=C/C=C/C=C/1C [Compound 1, rapamycin, reference compound]" endpointresult=1.1
compound="COC1CC2CCC(C)C(O)(O2)C(=O)C(=O)N2CCCCC2C(=O)OC(C(C)CC2CCC(O)C(OC)C2)CC(=O)C(C)C=C(C)C(O)C(OC)C(=O)C(C)CC(C)C=CCCC=C1C (stereo not shown)" endpointresult=0.6

----------
assayMethodText: Cytotoxicity assay (CellTiter-Glo, 72 h), Jurkat
Assay type: cell-based
experimentalSetup: human, Jurkat cells (T lymphoma), conc 0.0488281 uM, raw data (replicates)
In this section, each of the compounds is paired with its reported viability at 72 h, 0.0488281 uM.
testReadout: viability at 72 h, 0.0488281 uM (%)

compound="CO[C@H]1C[C@@H]2CC[C@@H](C)[C@@](O)(O2)C(=O)C(=O)N2CCCC[C@H]2C(=O)O[C@H]([C@H](C)C[C@@H]2CC[C@@H](O)[C@H](OC)C2)CC(=O)[C@H](C)/C=C(\\C)[C@@H](O)CC(=O)[C@H](C)C[C@H](C)/C=C/C=C(C)/C=C/1C [Compound 2, 27-demethoxy-19-methyl rapamycin]" testreadout="viability at 72 h, 0.0488281 uM" endpointresult=101
compound="COC1CC2CCC(C)C(O)(O2)C(=O)C(=O)N2CCCCC2C(=O)OC(C(C)CC2CCC(O)C(OC)C2)CCC(C)C=C(C)C(O)C(OC)C(=O)C(C)CC(C)C=CC=CC=C1C (centres unmarked) [Compound 16, 32-desketorapamycin]" testreadout="viability at 72 h, 0.0488281 uM" endpointresult=25.7

----------
In this section, each of the molecules is paired with its reported viability at 72 h, 0.390625 uM.
assayMethodText: Cytotoxicity assay (CellTiter-Glo, 72 h), SKOV-3
Type: cell-based, human
experimentalSetup: human, SKOV-3 cells (ovarian adenocarcinoma), conc 0.390625 uM; raw replicate data; read-out: SKOV3 viability (%)
Description: Jurkat cells were cultured in RPMI1640 medium supplemented with 10% foetal bovine serum, penicillin (50 U/ml), streptomycin (50 μg/ml), and Glutamax. SKOV-3 cells were cultured in DMEM medium supplemented with 10% fetal bovine serum, penicillin (50 U/ml), and streptomycin (50 μg/ml). […] Cell viabilities were measured using a CellTiter-Glo luminescent cell viability assay and EnVision multilabel plate reader.
testReadout: viability at 72 h, 0.390625 uM (%)

smilesinput=CO[C@H]1C[C@@H]2CC[C@@H](C)[C@@](O)(O2)C(=O)C(=O)N2CCCC[C@H]2C(=O)O[C@H]([C@H](C)C[C@@H]2CC[C@@H](O)[C@H](OC)C2)CC(=O)[C@H](C)/C=C(\C)[C@@H](O)CC[C@H](C)/C=C/C=C/C=C/1C testreadout="viability at 72 h, 0.390625 uM" measureunit=% endpointresult=75
smilesinput=CO[C@H]1C[C@@H]2CC[C@@H](C)[C@@](O)(O2)C(=O)C(=O)N2CCCC[C@H]2C(=O)O[C@H]([C@H](C)C[C@@H]2CC[C@@H](O)[C@H](OC)C2)CC(=O)[C@H](C)/C=C(\C)[C@@H](O)CC(=O)[C@H](C)C[C@H](C)/C=C/C=C(C)/C=C/1C testreadout="viability at 72 h, 0.390625 uM" measureunit=% endpointresult=98.8
